system: Plasmodium falciparum; test: Confirmatory screen in NF54 pLDH assay, in single point, at 2uM, 72h; type: functional, Erythrocyte; conditions: timepoint 72 hour
Screen size: about 4,800 compounds; about 410 (8.5%) showed an effect of 50% or more. For the sample, strong results were picked, then their nearest neighbours and some compounds at random.
Parameter: % Inhibition (%)

[[record]]
compound = "O=C(c1csc(C(=O)N2CCCC2)n1)N1CCN(Cc2ccccc2)CC1"
target_or_test_system = "Plasmodium falciparum"
result_units = "%"
value_measured = -4

[[record]]
compound = "CC[n+]1c(/C=C/N(C)c2ccccc2)oc2ccc(-c3ccccc3)cc21"
target_or_test_system = "Plasmodium falciparum"
result_units = "%"
value_measured = 91

[[record]]
compound = "CC1CCCC(C)N1C(=O)CN(C)c1cccc2cccnc12 (stereo unspecified)"
target_or_test_system = "Plasmodium falciparum"
result_units = "%"
value_measured = 4

[[record]]
compound = "COc1cc(-c2nc3ncnn3c(N)c2C#N)cc(OC)c1OC"
target_or_test_system = "Plasmodium falciparum"
result_units = "%"
value_measured = -17

[[record]]
compound = "O=C1C[C@H](c2nc3cc(Cl)ccc3o2)CN1c1ccc(F)cc1"
target_or_test_system = "Plasmodium falciparum"
result_units = "%"
value_measured = -13

[[record]]
compound = "CCN(C(=O)[C@H]1CCOC1)c1ccc(C(F)(F)F)cc1"
target_or_test_system = "Plasmodium falciparum"
result_units = "%"
value_measured = 5


----------
system: Plasmodium falciparum; experiment: Confirmatory screen in NF54 pLDH assay, in single point, at 2uM, 72h; format: functional, Erythrocyte; conditions: timepoint 72 hour
The campaign covered roughly 4,800 compounds. About 410 (8.5%) showed an effect of 50% or more. The entries come from a sample that favours strong results as a whole.
Parameter: % Inhibition

[[record]]
compound = "O=C(CN1CCC(c2ccc(F)c(F)c2)CC1)NCc1cccnc1"
value_measured = "-8%"

[[record]]
compound = "Nc1nc(C2CC(N)C2)cc(N2CCC(Oc3ccccc3Cl)CC2)n1 (stereo unspecified)"
value_measured = "65%"

[[record]]
compound = "O=C(NC1CCN(Cc2ccco2)CC1)c1ccco1"
value_measured = "-2%"

[[record]]
compound = "CCOC(=O)c1cc(NC(=O)C(C)(C)NC(=O)OC(C)(C)C)c(F)cc1C"
value_measured = "8%"

[[record]]
compound = "Cc1nc(-c2ccc(N3CCC(NCCCn4ccnc4)CC3)cc2)cs1"
value_measured = "23%"

[[record]]
compound = "CCOC(=O)c1ncn(C2CCCCC2)c1N"
value_measured = "10%"

[[record]]
compound = "O=C(CCc1ccc(Cl)c(C(F)(F)F)c1)N1CC[C@H](N2CCc3ccccc3C2)C1"
value_measured = "45%"

[[record]]
compound = "CCN(CC)C(=O)c1cc(C)n(-c2ccc3c(c2)OCCO3)c1C"
value_measured = "-3%"

[[record]]
compound = "Cc1cc(N2CCN(c3ccccn3)CC2)n2cc(-c3ccccc3)nc2n1"
value_measured = "14%"

[[record]]
compound = "CCOc1ccc2sc(NC(=O)Cn3cnc4nc(N5CCCCC5)sc4c3=O)nc2c1"
value_measured = "-1%"

[[record]]
compound = "Nc1nc(N2CCN(c3ccc(F)c(Cl)c3)CC2)cc([C@H]2C[C@@H](N)C2)n1"
value_measured = "34%"


----------
test system: Plasmodium falciparum; test: Confirmatory screen in NF54 pLDH assay, in single point, at 2uM, 72h; type: functional, Erythrocyte; details: timepoint 72 hour
Out of some 4,800 compounds screened, about 410 (8.5%) showed an effect of 50% or more. The list comes from a sample in which strong results are over-represented; it also holds close analogues and randomly drawn compounds.
Reported % Inhibition values are given for each entry in this list.
Parameter: % Inhibition (%)

[[record]]
smiles_str = "CCOc1ccc(C/C(=C/N)c2nc(-c3ccc(Cl)cc3)cs2)cc1"
result_units = "%"
value_measured = 15

[[record]]
smiles_str = "Cc1c(NC(=O)C(F)(F)[C@@]2(F)OC(F)(F)C(F)(F)C2(F)F)c(=O)n(-c2ccccc2)n1C"
result_units = "%"
value_measured = -16

[[record]]
smiles_str = "Cc1ncsc1C(=O)N1CCC2(CCCCC2)C1"
result_units = "%"
value_measured = -22

[[record]]
smiles_str = "Cc1nsc2ncc(C(=O)N3CCC(C)CC3)c(N3CCC(C(=O)Nc4cc(F)ccc4F)CC3)c12"
result_units = "%"
value_measured = 44

[[record]]
smiles_str = "O=C(Cc1ccc(N(Cc2cccc(F)c2)C(=O)C2CCCC2)cc1)NCCN1CCCCC1"
result_units = "%"
value_measured = 43


----------
tested on: Plasmodium falciparum; assay: Confirmatory screen in NF54 pLDH assay, in single point, at 2uM, 72h; assay type: functional, Erythrocyte; settings: timepoint 72 hour
Out of some 4,800 compounds screened, about 410 (8.5%) showed an effect of 50% or more. The sample holds strong results, similar compounds and a random draw of the others, so the mix is not that of the screen.
Reported % Inhibition values are given for each entry in this list.
Parameter: % Inhibition (%)

[[record]]
smiles_str = "CC(C)c1cc(=O)[nH]c(-n2nc(C3CC3)cc2NC(=O)COc2ccc3ccccc3c2)n1"
parameter = "% Inhibition"
value_measured = 65

[[record]]
smiles_str = "Cc1cc(NC(=O)c2ccc(COc3ccc4ccccc4c3)o2)nn1C"
parameter = "% Inhibition"
value_measured = 13

[[record]]
smiles_str = "Cn1c(-c2ccc(Cl)c(Cl)c2)c[n+](CC(=O)c2ccc(-c3ccccc3)cc2)c1N"
parameter = "% Inhibition"
value_measured = 9

[[record]]
smiles_str = "Cc1nc(CC(=O)Nc2cc(C3CC3)nn2-c2ccccc2)cs1"
parameter = "% Inhibition"
value_measured = 8

[[record]]
smiles_str = "C=Cn1cc[n+](CC(=O)c2ccc(-c3ccccc3)cc2)c1"
parameter = "% Inhibition"
value_measured = 51

[[record]]
smiles_str = "CN1CCN(Cc2cc3cc4c(cc3nc2-c2ccc(Cl)cc2)OCO4)CC1=O"
parameter = "% Inhibition"
value_measured = 51

[[record]]
smiles_str = "Cc1cc(C)nc(-n2nc(-c3ccc(Cl)cc3)c3c2NC(=O)C[C@@H]3c2ccc3c(c2)OCO3)n1"
parameter = "% Inhibition"
value_measured = 2

[[record]]
smiles_str = "c1cc(CN2CCN(C3CCCCCC3)CC2)ccn1"
parameter = "% Inhibition"
value_measured = -17

[[record]]
smiles_str = "O=S1(=O)CCN(C2CCN(Cc3c(F)cccc3F)CC2)CC1"
parameter = "% Inhibition"
value_measured = 14

[[record]]
smiles_str = "O=C(Nc1ccc(OC(F)F)cc1)c1cc(C2CC2)nc2c1c(C1CC1)nn2-c1ccccc1"
parameter = "% Inhibition"
value_measured = -5


----------
tested on: Plasmodium falciparum; assay: Confirmatory screen in NF54 pLDH assay, in single point, at 2uM, 72h; assay type: functional, Erythrocyte; settings: timepoint 72 hour
Screen size: about 4,800 compounds; about 410 (8.5%) showed an effect of 50% or more. The entries come from a sample that favours strong results as a whole.
Parameter: % Inhibition (%)

[[record]]
molecule = "COC(=O)C1=C(C(=O)OC)SC(=C2C(=S)C(C)(C)N(C(=O)COc3ccc4ccccc4c3)c3ccccc32)S1"
parameter = "% Inhibition"
value_measured = 7

[[record]]
molecule = "C[C@@]1(C(=O)NCc2ccccc2)Cn2nc(-c3ccccc3)cc2C(=O)N1c1ccc2c(c1)OCCO2"
parameter = "% Inhibition"
value_measured = 36

[[record]]
molecule = "CCOC(=O)C1CCC(CN(Cc2ccc(OC)cc2)S(=O)(=O)c2cc(C(=O)Nc3ccc(OCC)cc3)ccc2F)CC1 (centres undefined)"
parameter = "% Inhibition"
value_measured = 6

[[record]]
molecule = "CCc1ccc(-c2cc3n(n2)C[C@@](C)(C(=O)NC2CCCCC2)N(c2cc(C)cc(C)c2)C3=O)cc1"
parameter = "% Inhibition"
value_measured = 58


----------
test system: Plasmodium falciparum; experiment: Confirmatory screen in NF54 pLDH assay, in single point, at 2uM, 72h; format: functional, Erythrocyte; settings: timepoint 72 hour
Among all 4,800 compounds or so, about 410 (8.5%) showed an effect of 50% or more. For the sample, strong results were picked, then their nearest neighbours and some compounds at random.
Parameter: % Inhibition (%)

[[record]]
compound = "O=C(O)c1ccc(N(C(=O)c2ccc3c(c2)OCO3)C(=O)c2ccc3c(c2)OCO3)cc1O"
parameter = "% Inhibition"
value_measured = 15

[[record]]
compound = "COCc1cnc(NC(=O)NC2(c3ncccn3)CCOCC2)s1"
parameter = "% Inhibition"
value_measured = 10

[[record]]
compound = "COc1cccc([C@H]2CC(=O)Nc3c2cnn3C)c1"
parameter = "% Inhibition"
value_measured = -11

[[record]]
compound = "COc1ccc2oc(-c3ccc(CNC(=O)c4cccnc4)cc3)nc2c1"
parameter = "% Inhibition"
value_measured = 6

[[record]]
compound = "CCOC(=O)COc1cc(N)c(F)cc1Cl"
parameter = "% Inhibition"
value_measured = -9

[[record]]
compound = "CN1CCN(c2nc(O)c3c(n2)NC(=O)C[C@H]3c2c(F)cccc2Cl)CC1"
parameter = "% Inhibition"
value_measured = -6

[[record]]
compound = "NC1CC(NCCc2cccc3cccnc23)c2ccccc21 (stereo not drawn)"
parameter = "% Inhibition"
value_measured = 36

[[record]]
compound = "Oc1ccccc1CNc1cccc2cccnc12"
parameter = "% Inhibition"
value_measured = 97

[[record]]
compound = "Cc1ccc(Nc2c(C(=O)NCc3ccc(F)cc3)cnc3c2c(C)nn3C)cc1"
parameter = "% Inhibition"
value_measured = -5

[[record]]
compound = "COc1ccc(NS(=O)(=O)c2ccc(NC(=O)CN(c3ccc(F)cc3)S(C)(=O)=O)cc2)cc1"
parameter = "% Inhibition"
value_measured = 12

[[record]]
compound = "CCc1ccc(C2=C[C@@H](c3cccc(OC)c3)n3ncc(C(=O)Nc4ccc(C)cc4)c3N2)cc1"
parameter = "% Inhibition"
value_measured = 70

[[record]]
compound = "CCCCCNC(=O)NCc1ncoc1C"
parameter = "% Inhibition"
value_measured = 4

[[record]]
compound = "O=C(NC(C1CC1)C1CC1)c1ccsc1"
parameter = "% Inhibition"
value_measured = -23

[[record]]
compound = "CCOC(=O)CNc1ccc(F)c(Cl)c1"
parameter = "% Inhibition"
value_measured = -3

[[record]]
compound = "COc1cccc(S(=O)(=O)N2CCC(OCCOCc3ccccc3)CC2)c1"
parameter = "% Inhibition"
value_measured = 10

[[record]]
compound = "COc1cc(=O)c(C(=O)N2CCCCCC2)nn1-c1ccc(F)c(F)c1"
parameter = "% Inhibition"
value_measured = 10

[[record]]
compound = "NC(=O)c1nnn2c1C(=O)N[C@H](c1ccc(Cl)cc1)C2"
parameter = "% Inhibition"
value_measured = -13

[[record]]
compound = "CCc1cccc(NC(=O)C2CCN(c3c(C)n(-c4ccccc4)c(=O)n(CC(C)C)c3=O)CC2)c1"
parameter = "% Inhibition"
value_measured = 5

[[record]]
compound = "Cc1cc(C)cc(NC(=O)Cc2nc(C)c(C(=O)NCc3ccccc3)s2)c1"
parameter = "% Inhibition"
value_measured = 5

[[record]]
compound = "COc1ccc2c(c1)CN(C(=O)C1CC3CCC1C3)CC2 (stereo not drawn)"
parameter = "% Inhibition"
value_measured = 11

[[record]]
compound = "CNc1nc(C)cc(C(=O)Nc2ccc(Cl)cc2NC(C)=O)n1"
parameter = "% Inhibition"
value_measured = 5

[[record]]
compound = "COc1ccc(NC(=O)[C@@H]2COCC(=O)N2Cc2ccc(C)cc2)cc1"
parameter = "% Inhibition"
value_measured = 7

[[record]]
compound = "CC(NS(C)(=O)=O)C(=O)N1CCC(F)(c2cc(F)cc(F)c2)C1 (stereo not drawn)"
parameter = "% Inhibition"
value_measured = 12

